B1: TPR t1 (parent)
chain: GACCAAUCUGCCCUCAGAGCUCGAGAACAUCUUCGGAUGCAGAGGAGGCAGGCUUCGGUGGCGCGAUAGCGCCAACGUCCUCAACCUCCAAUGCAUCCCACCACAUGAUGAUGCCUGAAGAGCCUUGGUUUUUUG

Variants of: B1
Assay: polymerase ribozyme fitness, log enrichment relative to wild type (log ratio); higher = more active; in vitro selection for triplet polymerase activity
Recorded Endpoint: polymerase ribozyme fitness (log ratio)
Answer using only a numeral; do not append any unit.

Ask: Determine its reported polymerase ribozyme fitness (log ratio): G51U G63A G117U
Result: -5.99

Ask: Determine its reported polymerase ribozyme fitness (log ratio): A6C C22G A43C U59A U87C A118G
Result: -5.18

Ask: Determine its reported polymerase ribozyme fitness (log ratio): G36U C72A C85A U92A U112A U129A
Result: -5.86

Ask: Determine its reported polymerase ribozyme fitness (log ratio): C22G C72U C114A
Result: -3.16

Ask: Determine its reported polymerase ribozyme fitness (log ratio): G19A G48U C49U G69U G93U
Result: -4.49

Ask: Determine its reported polymerase ribozyme fitness (log ratio): G42U G93A
Result: -2.14

Ask: Determine its reported polymerase ribozyme fitness (log ratio): C12U A16U A66C A105C C124G
Result: -5.31

Ask: Determine its reported polymerase ribozyme fitness (log ratio): G36C U81A A84U
Result: -2.7

Ask: Determine its reported polymerase ribozyme fitness (log ratio): G57A C72U G113A C114U
Result: -2.53

Ask: Determine its reported polymerase ribozyme fitness (log ratio): C53U C79G
Result: -1.2

Ask: Determine its reported polymerase ribozyme fitness (log ratio): U38A A50U C62U C123G U133A
Result: -1.2

Ask: Determine its reported polymerase ribozyme fitness (log ratio): A2U U9G
Result: -1.32

Ask: Determine its reported polymerase ribozyme fitness (log ratio): C11A C70A A90G
Result: -3.13

Ask: Determine its reported polymerase ribozyme fitness (log ratio): C3U G48A A68G
Result: -3.84

Ask: Determine its reported polymerase ribozyme fitness (log ratio): U38G G39A C72A U81A U112A
Result: -2.71

Ask: Determine its reported polymerase ribozyme fitness (log ratio): A27U G127A
Result: -4.51

Ask: Determine its reported polymerase ribozyme fitness (log ratio): A18C G128C
Result: -5.12

Ask: Determine its reported polymerase ribozyme fitness (log ratio): C72A G110U
Result: -1.54

Ask: Determine its reported polymerase ribozyme fitness (log ratio): C12U C72U A100C G113U G127A
Result: -3.91

Ask: Determine its reported polymerase ribozyme fitness (log ratio): U54A U116G
Result: -1.91

Ask: Determine its reported polymerase ribozyme fitness (log ratio): U9G G42U G45C U92G U129A
Result: -6.64

Ask: Determine its reported polymerase ribozyme fitness (log ratio): C88U A118U
Result: 0.45
